# Assay target: hHER3 full length (human, UniProt P21860 20-1342)
# Test protocol: cell-based or functional assay
Hi there, I'd appreciate the recorded IC50 pHER3, HRG1-β1 stimulated MCF7 for every entry that follows.
Answers are plain numbers, in M.

Binder	Measurement unit	IC50 pHER3, HRG1-β1 stimulated MCF7
HER3MS00129 (VHH, 04C07 basic + A46E + N101G) VHH: EVQLVESGGGLVQPGGSLRLSCAASGFTFSSYPMSWVRQAPGKGPEWVSTVSPGGITTSYADSVKGRFTISRDNSKNTLYLQMNSLRPEDTAVYYCLRDLGNRGQGTLVTVSS	M	1.21e-07
HER3MS00131 (VHH, 04C07 basic + A46E + N101S) VHH: EVQLVESGGGLVQPGGSLRLSCAASGFTFSSYPMSWVRQAPGKGPEWVSTVSPGGITTSYADSVKGRFTISRDNSKNTLYLQMNSLRPEDTAVYYCLRDLSNRGQGTLVTVSS	M	2.26e-07
HER3MS00042 (VHH, 04C07 + A14P, A74S, K83R, Q108L; also called HER3MS0042; 04C07 basic variant) VHH: EVQLVESGGGLVQPGGSLRLSCAASGFTFSSYPMSWVRQAPGKGPAWVSTVSPGGITTSYADSVKGRFTISRDNSKNTLYLQMNSLRPEDTAVYYCLRDLNNRGQGTLVTVSS	M	6.81e-09
04C07 (VHH, also called HER3MS04C07; HER3MS004C07) VHH: EVQLVESGGGLVQAGGSLRLSCAASGFTFSSYPMSWVRQAPGKGPAWVSTVSPGGITTSYADSVKGRFTISRDNAKNTLYLQMNSLKPEDTAVYYCLRDLNNRGQGTQVTVSS	M	6.25e-09
HER3MS00130 (VHH, 04C07 basic + N101G) VHH: EVQLVESGGGLVQPGGSLRLSCAASGFTFSSYPMSWVRQAPGKGPAWVSTVSPGGITTSYADSVKGRFTISRDNSKNTLYLQMNSLRPEDTAVYYCLRDLGNRGQGTLVTVSS	M	9.38e-09

Consider HER3MS00132 (VHH, 04C07 basic + N101S) VHH: EVQLVESGGGLVQPGGSLRLSCAASGFTFSSYPMSWVRQAPGKGPAWVSTVSPGGITTSYADSVKGRFTISRDNSKNTLYLQMNSLRPEDTAVYYCLRDLSNRGQGTLVTVSS . Its measured IC50 pHER3, HRG1-β1 stimulated MCF7 is 1.31e-08
